Listing of recorded IC50 by entry.
# tested.on: Lsp from E. coli (Escherichia coli)
# Construct: The full-length Lsp clone from E. coli (residues 1-164); His6 with enterokinase cleavage site (pET19b) (N); made in house; host or cells: E. coli Lemo21 (DE3), pET19b vector
# assay.protocol: Lsp FRET activity assay, IC50 determination
# Assay type: biochemical
# measurement.conditions: FRET-based assay, [Lsp] = 100 nM, mean (± SD); read-out: IC50
Your answer is read as nM, so omit the unit and give the number.

Study these solved cases before continuing.
structure.notation: CCCCCCOc1cc([N+](=O)[O-])c(C(=O)Nc2nnc(C(CC)CC)s2)cc1OC
IC50 / nM: 110
//
structure.notation: CCCCOc1cc([N+](=O)[O-])c(C(=O)Nc2nnc(C(CC)CC)s2)cc1OC
IC50 / nM: 540

Next compound, please.
Quick note, IC50 for CCC(CC)c1nnc(NC(=O)c2cc(OC)c(OC(C)C)cc2[N+](=O)[O-])s1 landed at 210

###

# tested.on: Lsp from E. coli (Escherichia coli)
# Construct: The full-length Lsp clone from E. coli (residues 1-164); His6 with enterokinase cleavage site (pET19b) (N); made in house; host or cells: E. coli Lemo21 (DE3), pET19b vector
# assay.protocol: Lsp FRET activity assay, IC50 determination
# Assay type: biochemical
# measurement.conditions: Table 7, linker variation, E = 100 nM; read-out: IC50
# Description: […] […] 50 μM Lsp FRET substrate was subsequently added and the rate of substrate hydrolysis was measured by increase in fluorescence (excitation 355 nm, emission 495 nm) in 96-well plates on a PerkinElmer EnVision plate reader or Tecan Safire 2 microplate reader. Michaelis-Menten constants and […] were determined using GraphPad Prism software (GraphPad, Inc.).
Listing of recorded pIC50 by entry.
pIC50 here is simply -log10 of the concentration when that concentration is written in mol/L.

compound: CCC(CC)c1nnc(NC(=O)c2cc(Cl)c(OCCCCNC(=O)OC(C)(C)C)cc2[N+](=O)[O-])s1
pIC50: 5.80
//
compound: CCC(CC)c1nnc(NC(=O)c2cc(Cl)c(OC3CCCN(C(=O)OC(C)(C)C)C3)cc2[N+](=O)[O-])s1 (stereo not shown)
pIC50: 6.08
//
compound: CCC(CC)c1nnc(NC(=O)c2cc(Cl)c(OCCNC(=O)OC(C)(C)C)cc2[N+](=O)[O-])s1
pIC50: 6.68

Quick note, pIC50 for CCC(CC)c1nnc(NC(=O)c2cc(Cl)c(Oc3ccc(NC(=O)OC(C)(C)C)cc3)cc2[N+](=O)[O-])s1 landed at 6.19

###

# tested.on: Lsp from E. coli (Escherichia coli, UniProt P00804)
# Construct: The full-length Lsp clone from E. coli (residues 1-164); His6 with enterokinase cleavage site (pET19b) (N); made in house; host or cells: E. coli Lemo21 (DE3), pET19b vector
# Sequence (P00804 whole entry, the tested form may be a part): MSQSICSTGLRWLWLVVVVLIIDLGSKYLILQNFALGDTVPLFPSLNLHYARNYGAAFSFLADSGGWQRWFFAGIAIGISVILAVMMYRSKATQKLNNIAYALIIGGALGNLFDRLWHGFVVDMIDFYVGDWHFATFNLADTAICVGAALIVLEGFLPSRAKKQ
# assay.protocol: Lsp FRET activity assay, IC50 determination
# Type: biochemical
# measurement.conditions: Table 4; read-out: IC50
value.type: IC50 (µM)
Your answer is read as µM, so omit the unit and give the number.

Study these solved cases before continuing.
structure.notation: CCC(CC)c1nnc(NC(=O)c2ccccc2C(=O)O)s1
meas.value: 270

structure.notation: CCC(CC)c1nnc(NC(=O)c2ccccc2CC(=O)OC)s1
meas.value: 21

structure.notation: CCC(CC)c1nnc(NC(=O)c2ccc(OC)cc2[N+](=O)[O-])s1
meas.value: 2.2

Next molecule, please.
Quick note, IC50 for CCC(CC)c1nnc(NC(=O)c2ccc(OC)cc2N)s1 landed at 11

Origin of values: patent US20200181101A1
